Hi there, I'd appreciate the recorded T/C for every entry that follows.
- System: P388 leukemia ip, CD2F1 mice, survival T/C
- ASSAY_COMMENT: NCI In Vivo Anticancer Drug Screen. Data for tumor model P388 Leukemia (intraperitoneal) in CD2F1 (CDF1) mice
- CONDITION_NOTES: endpoint: median survival time; dose: 100.0 mg/kg/injection; schedule: Q01DX005 (ip); vehicle: saline with Tween-80; higher = longer survival
Inconclusive results and toxic doses are left out.

In: Give T/C (P388 leukemia ip, CD2F1 mice, survival T/C) of the following compound: [O-][n+]1nn(CC(O)CCl)c2ccccc21 (stereo unspecified)
Out: 102 % of control

In: Kindly state the measured T/C obtained for CCOC(=O)c1cc(Cl)nc2ccc3ccccc3c12 with P388 leukemia ip, CD2F1 mice, survival T/C.
Out: 98 % of control

In: # returns recorded T/C (system: P388 leukemia ip, CD2F1 mice, survival T/C) for O=c1[nH]c(=O)n2ncnc2[nH]1
Out: 95 % of control

In: Form field - read-out: T/C; system: P388 leukemia ip, CD2F1 mice, survival T/C; submitted item: NC(=S)CCCCCC(N)=S
Out: 111 % of control

In: API: value(readout=T/C, system=P388 leukemia ip, CD2F1 mice, survival T/C) for record O=C(Nc1ccc(Cc2ccc(NC(=O)C(c3ccccc3)c3ccccc3)cc2)cc1)C(c1ccccc1)c1ccccc1
Out: 95 % of control

In: What is its T/C for P388 leukemia ip, CD2F1 mice, survival T/C? Entry: O=C(CSCC(=O)c1ccc([N+](=O)[O-])cc1)c1ccc([N+](=O)[O-])cc1
Out: 96 % of control

In: Record lookup: for P388 leukemia ip, CD2F1 mice, survival T/C, what T/C belongs to O=C1CN(CCN2CCOCC2)CC(=O)N2Cc3ccccc3CN12 ?
Out: 98 % of control

In: Report T/C for COc1ccc(CCNC(=O)Nc2ccc(C(C)(C)C)cc2)cc1OC tested on P388 leukemia ip, CD2F1 mice, survival T/C.
Out: 97 % of control

In: State its T/C on P388 leukemia ip, CD2F1 mice, survival T/C: CCOc1c(N=Nc2ccccc2Cl)c(-c2ccccc2)nn1C(N)=S
Out: 90 % of control

In: Provide the documented T/C with P388 leukemia ip, CD2F1 mice, survival T/C as the system for COc1ccc2nc(N/N=C/c3cccc(C)n3)cc(C)c2c1
Out: 114 % of control

In: What reported T/C corresponds to O=C(c1ccc([N+](=O)[O-])cc1)c1cnc2nc(-c3ccccc3)c(-c3ccccc3)nn12 on P388 leukemia ip, CD2F1 mice, survival T/C?
Out: 89 % of control

In: Item COCCOCCOCCOCCO with P388 leukemia ip, CD2F1 mice, survival T/C - T/C?
Out: 100 % of control

In: Record COC(=O)c1c(-c2ccccc2)c(C=O)n(C)c1C : what is its T/C with P388 leukemia ip, CD2F1 mice, survival T/C?
Out: 98 % of control

In: // fetch P388 leukemia ip, CD2F1 mice, survival T/C T/C for Cc1c2oc(=O)cc(-c3ccccc3)c2cc2c(=O)ccoc12
Out: 86 % of control

In: Which measured T/C belongs to CC(C)(C)OC(=O)NC(Cc1ccc(OCc2ccccc2)cc1)C(=O)O (stereo unspecified) , tested on P388 leukemia ip, CD2F1 mice, survival T/C?
Out: 106 % of control

In: Entry CCCCCN(CCCCC)CC(O)c1c(Cl)ccc2ccccc12 (stereo unspecified) , system P388 leukemia ip, CD2F1 mice, survival T/C: what T/C was measured?
Out: 106 % of control

In: Request - read-out T/C | tested on P388 leukemia ip, CD2F1 mice, survival T/C | compound COc1cccc(C(=O)Nc2ccccc2-c2ccccc2)c1OC
Out: 95 % of control

In: Value wanted: T/C (P388 leukemia ip, CD2F1 mice, survival T/C) of entry Cc1ccc(NC(=O)c2cc(C)ccc2N)cc1
Out: 91 % of control

In: // map CN(C)CCCNc1c2c(nc3ccc(Cl)cc13)CCCC2 to recorded T/C (system: P388 leukemia ip, CD2F1 mice, survival T/C)
Out: 106 % of control

In: Item: CN(C)CCCn1c2c(c3ccccc31)CCCCC2 Test system: P388 leukemia ip, CD2F1 mice, survival T/C Read-out: T/C Value: ?
Out: 101 % of control

In: Report T/C for O=C1Oc2ccccc2CC1C(=O)c1ccc(Cl)cc1 (stereo unspecified) tested on P388 leukemia ip, CD2F1 mice, survival T/C.
Out: 103 % of control

In: Which measured T/C belongs to CC(C)C(NN)C(=O)O (stereo unspecified) , tested on P388 leukemia ip, CD2F1 mice, survival T/C?
Out: 116 % of control

In: What is its T/C for P388 leukemia ip, CD2F1 mice, survival T/C? Entry: O=C(NCc1ccccc1)C1C(=O)N(Cc2ccccc2)C(=O)/C1=N/O (stereo unspecified)
Out: 100 % of control

In: Provide value of T/C for this record tested with P388 leukemia ip, CD2F1 mice, survival T/C: CC(=O)OCC1OC(n2c(Br)nc3c(=O)[nH]c(N)nc32)C(OC(C)=O)C1OC(C)=O (stereo unspecified)
Out: 104 % of control

In: Lab note: need T/C for Cc1ncc2c(n1)CCC1=C2OS(=O)(=O)CC1N(C)C (stereo unspecified) on P388 leukemia ip, CD2F1 mice, survival T/C, anyone have it?
Out: 97 % of control

In: Form: Entry = O=C(O)c1cc(O)c(O)c(OC(=O)c2cc(O)c(O)c(O)c2CNc2ccc3cc(S(=O)(=O)O)cc(S(=O)(=O)O)c3c2)c1 | System = P388 leukemia ip, CD2F1 mice, survival T/C | T/C = ____
Out: 115 % of control

In: # returns recorded T/C (system: P388 leukemia ip, CD2F1 mice, survival T/C) for CCc1c(C)sc(=S)n1C(C)C(=O)OC (stereo unspecified)
Out: 106 % of control

In: Return T/C measured with P388 leukemia ip, CD2F1 mice, survival T/C given this compound: CN(/C(=N/C(=S)NCc1ccccc1)SCc1ccccc1)c1ccccc1
Out: 86 % of control

In: Under P388 leukemia ip, CD2F1 mice, survival T/C: T/C value of NC(=S)n1nc(-c2ccccc2)c(N=Nc2ccccc2Cl)c1-c1ccccc1 ?
Out: 111 % of control

In: P388 leukemia ip, CD2F1 mice, survival T/C / T/C / COc1ccc(S(=O)(=O)N/N=C\c2cc([N+](=O)[O-])ccc2O)cc1OC : value?
Out: 109 % of control

In: Enter reported T/C observed with P388 leukemia ip, CD2F1 mice, survival T/C for CN1C(=O)N(C)C(=O)C(Nc2ccc([N+](=O)[O-])cc2)(SCCO)C1=O
Out: 104 % of control

In: Tell me reported T/C for CC(=O)Nc1nnc(-c2cc(=O)c3cc(Cl)ccc3o2)s1 , tested with P388 leukemia ip, CD2F1 mice, survival T/C.
Out: 92 % of control

In: Provide value of T/C for this record tested with P388 leukemia ip, CD2F1 mice, survival T/C: CCCCCCCCCCCCCCCCCCOC(=O)CCN
Out: 109 % of control

In: So what T/C did Nc1cc2nc3ccccc3nc2cc1O get with P388 leukemia ip, CD2F1 mice, survival T/C?
Out: 90 % of control

In: Quick check: T/C on P388 leukemia ip, CD2F1 mice, survival T/C, item COc1cc(COC(=O)c2ccc(CSc3ccc(Cl)cc3)o2)cc(OC)c1OC ?
Out: 99 % of control

In: Field: T/C (P388 leukemia ip, CD2F1 mice, survival T/C). Entry: CC[C@H]1CN2CCc3c([nH]c4ccccc34)[C@@H]2C[C@@H]1/C(=C\OC)C(=O)OC
Out: 108 % of control

In: Param readout= T/C; system= P388 leukemia ip, CD2F1 mice, survival T/C; entry= CCCCc1c(O)c(N=NC(=O)C[N+](C)(C)C)c2ccccc2c1O ; returns value.
Out: 110 % of control

In: Form: Entry = CCOc1ccccc1NC(=O)CC(=O)N1N=C(c2ccccc2)C(N=Nc2ccc(S(N)(=O)=O)cc2)C1=O (stereo unspecified) | System = P388 leukemia ip, CD2F1 mice, survival T/C | T/C = ____
Out: 102 % of control

In: P388 leukemia ip, CD2F1 mice, survival T/C / T/C / CSc1nc2nc[nH]c(=O)c2[nH]1 : value?
Out: 94 % of control

In: Hello, I am looking for reported T/C with P388 leukemia ip, CD2F1 mice, survival T/C for COC1=CC(=O)C(C(C)=O)=C(C2(C)C(=O)CCCC2=O)C1=O . Could you help?
Out: 89 % of control

In: For P388 leukemia ip, CD2F1 mice, survival T/C, provide T/C of O=C(/C(=C\c1ccccc1[N+](=O)[O-])S(=O)(=O)c1ccccc1)c1ccc([N+](=O)[O-])cc1 please.
Out: 103 % of control

In: // map CCOC(=O)N1C=C(C(=O)OC)C(c2ccccc2)C(C(=O)OC)=C1 to recorded T/C (system: P388 leukemia ip, CD2F1 mice, survival T/C)
Out: 106 % of control

In: Checklist item: T/C tested on P388 leukemia ip, CD2F1 mice, survival T/C, entry CCOC(=Nc1ccc(C#N)cc1)SC(c1ccccc1)(c1ccccc1)c1ccccc1 , value?
Out: 96 % of control

In: # value lookup — system P388 leukemia ip, CD2F1 mice, survival T/C, readout T/C, item COc1ccc(/C=C/c2nnc(N)o2)cc1
Out: 101 % of control

In: Form field: T/C recorded for O=C(Nc1ccc(NC(=O)c2ccncc2)cc1)c1ccncc1 with P388 leukemia ip, CD2F1 mice, survival T/C (enter value)
Out: 93 % of control

In: Give P388 leukemia ip, CD2F1 mice, survival T/C T/C for NC(=O)CNC(=O)NC(Cc1ccccc1)C(=O)O (stereo unspecified)
Out: 105 % of control

FYI, the data here is from PubChem BioAssay AID330.
